The values you see were collected from ChEMBL document CHEMBL1212936.

experiment: Physiological stability of the compound at pH 6.6 assessed as compound remaining after 24 hrs in presence of 20% acetonitrile; assay type: physicochemical; conditions: read-out: Stability
endpoint.name: remaining at 24 h (%)
Kindly answer with a numeric value in %, unit omitted.

input: Please give measured remaining at 24 h of the following entry: `O=C(O)c1c(O)c(C2(c3ccc(Cl)cc3)CC2)nc2c(C(F)(F)F)cccc12`
output: 104

###

test: Physiological stability of the compound in simulated intestinal fluid assessed as compound remaining after 12 hrs in presence of 20% acetonitrile; assay type: physicochemical; details: read-out: Stability
endpoint.name: remaining at 12 h

input: Output remaining at 12 h of `O=C(O)c1c(O)c(C2(c3ccc(Cl)cc3)CC2)nc2c(C(F)(F)F)cccc12`
output: 101%

###

assay: Physiological stability of the compound in simulated intestinal bile salts-lecithin mixture fluid assessed as compound remaining after 4 hrs in presence of 20% acetonitrile; type: physicochemical; conditions: read-out: Stability
endpoint.name: remaining at 4 h (%)
Number only, in %; omit the unit.

input: Name the recorded remaining at 4 h of the compound listed here: `O=C(O)c1c(O)c(C2(c3ccc(Cl)cc3)CC2)nc2c(C(F)(F)F)cccc12`
output: 102

###

assay: Physiological stability of the compound at pH 4.5 assessed as compound remaining after 8 hrs in presence of 20% acetonitrile; type: physicochemical; settings: read-out: Stability
endpoint.name: remaining at 8 h (%)
Report as a plain number; the unit % is understood.

input: Find the measured remaining at 8 h of `O=C(O)c1c(O)c(C2(c3ccc(Cl)cc3)CC2)nc2c(C(F)(F)F)cccc12` and report it.
output: 102

###

assay: Aqueous solubility of the compound at pH 6.6; assay type: physicochemical; conditions: aqueous solution
endpoint.name: solubility
Answer with the figure and its unit, nothing else.

Worked cases, solubility given:
[[record]]
compound = "O=C(O)c1c(O)c(C2Cc3ccccc3C2)nc2c(C(F)(F)F)cccc12"
result = "700 µg/mL"

[[record]]
compound = "CC(C)c1cccc2c(C(=O)O)c(O)c(C3(c4ccc(F)cc4)CC3)nc12"
result = "2500 µg/mL"

[[record]]
compound = "O=C(O)c1c(O)c(C2(c3ccc(F)cc3)CC2)nc2c(C(F)(F)F)cccc12"
result = "2900 µg/mL"


Continue with the next compound.
input: Identify measured solubility associated with `Cc1ccc2c(C(=O)O)c(O)c(C3(c4ccc(Cl)cc4)CC3)nc2c1C`
output: 190 µg/mL

###

assay: Physiological stability of the compound at pH 6.6 assessed as compound remaining after 20 hrs in presence of 20% acetonitrile; format: physicochemical; settings: read-out: Stability
endpoint.name: remaining at 20 h
# answer = value followed by unit

input: Give the reported value of remaining at 20 h for this record: `O=C(O)c1c(O)c(C2(c3ccc(Cl)cc3)CC2)nc2c(C(F)(F)F)cccc12`
output: 102%

###

experiment: Solubility of the compound in fasted simulated intestinal bile salts-lecithin mixture fluid at pH 6; type: physicochemical
endpoint.name: solubility (µg/mL)
Report as a plain number; the unit µg/mL is understood.

input: // fetch solubility given entry `O=C(O)c1c(O)c(C2(c3ccc(Cl)cc3)CC2)nc2c(C(F)(F)F)cccc12`
output: 87

###

assay: Clearance in Sprague-Dawley rat at 3 mg/kg, iv and 10 mg/kg, po; type: ADME, organism-based; conditions: in vivo
compounds and their reported clearance
Report as a plain number; the unit mL/min/kg is understood.

[[record]]
compound = "O=C(O)c1c(O)c(C2(c3ccc(C(F)(F)F)cc3)CC2)nc2c(C(F)(F)F)cccc12"
unit_descriptor = "mL/min/kg"
numeric_result = 0.4

[[record]]
compound = "CC(c1ccccc1)c1nc2c3c(ccc2c(C(=O)O)c1O)CCCC3 (stereo not given)"
unit_descriptor = "mL/min/kg"
numeric_result = 9

[[record]]
compound = "CC(C)(c1ccccc1)c1nc2c(C(F)(F)F)cccc2c(C(=O)O)c1O"
unit_descriptor = "mL/min/kg"
numeric_result = 3.7

[[record]]
compound = "O=C(O)c1c(O)c(C2(c3ccc(Cl)cc3)CC2)nc2c(C(F)(F)F)cccc12"
unit_descriptor = "mL/min/kg"
numeric_result = 0.7

[[record]]
compound = "O=C(O)c1c(O)c(Cc2ccc(Cl)cc2)nc2c3c(ccc12)CCCC3 [PSI-697]"
unit_descriptor = "mL/min/kg"
numeric_result = 11


input: Please supply the value of reported clearance for the item `CCc1cccc2c(C(=O)O)c(O)c(C3(c4ccc(C(F)(F)F)cc4)CC3)nc12`
output: 9.4

input: Tell me clearance reported for `O=C(O)c1c(O)c(C2(c3ccccc3Cl)CC2)nc2c(C(F)(F)F)cccc12`
output: 2.4

input: Identify measured clearance corresponding to `O=C(O)c1c(O)c(C2Cc3ccccc3C2)nc2c(C(F)(F)F)cccc12`
output: 28

input: Fill in clearance for record `CC(C)c1cccc2c(C(=O)O)c(O)c(C3(c4ccc(F)cc4)CC3)nc12`
output: 8.7

input: Given `O=C(O)c1c(O)c(C2(c3ccc(F)cc3)CC2)nc2c(C(F)(F)F)cccc12` , respond with its clearance.
output: 0.5
